Listing of entries alongside the reported IC50.
TARGET_OR_TEST_SYSTEM: HPK1 (Homo sapiens, UniProt Q92918)
Sequence (Q92918 whole entry, species assumed): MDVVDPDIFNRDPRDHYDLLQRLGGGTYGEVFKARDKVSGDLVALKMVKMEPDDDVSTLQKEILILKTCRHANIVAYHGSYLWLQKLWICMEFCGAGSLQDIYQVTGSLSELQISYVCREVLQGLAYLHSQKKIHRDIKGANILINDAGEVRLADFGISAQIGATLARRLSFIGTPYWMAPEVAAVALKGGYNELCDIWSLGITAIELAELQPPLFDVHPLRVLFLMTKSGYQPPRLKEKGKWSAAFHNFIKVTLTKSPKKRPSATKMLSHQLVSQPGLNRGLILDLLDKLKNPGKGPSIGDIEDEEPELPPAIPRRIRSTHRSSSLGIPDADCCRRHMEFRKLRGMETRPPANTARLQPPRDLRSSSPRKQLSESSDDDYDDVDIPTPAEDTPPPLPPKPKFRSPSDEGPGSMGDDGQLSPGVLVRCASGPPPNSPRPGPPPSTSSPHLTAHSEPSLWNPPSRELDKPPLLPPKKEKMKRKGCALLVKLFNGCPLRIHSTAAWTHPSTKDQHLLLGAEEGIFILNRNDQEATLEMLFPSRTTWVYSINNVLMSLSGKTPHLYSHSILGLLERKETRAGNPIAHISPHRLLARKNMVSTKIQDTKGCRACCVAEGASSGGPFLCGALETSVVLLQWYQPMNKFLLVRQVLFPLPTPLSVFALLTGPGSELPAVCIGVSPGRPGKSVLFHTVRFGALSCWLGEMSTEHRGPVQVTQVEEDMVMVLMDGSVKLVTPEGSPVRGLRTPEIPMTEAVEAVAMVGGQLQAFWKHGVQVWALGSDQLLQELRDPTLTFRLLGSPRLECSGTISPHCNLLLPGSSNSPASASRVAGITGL
METHOD_DESCRIPTION: HPK1 Biochemical Assay (ADP-Glo luminescence; low ATP 10 μM or high ATP 200 μM)
CONDITIONS_USED: HPK1 ADP-Glo assay, high ATP (200 μM ATP, 5 nM HPK1); read-out: Biochemical Potency (high ATP)

Which measured IC50 value corresponds to "Cc1cccnc1-c1nc2cc(Nc3cc(C(F)(F)F)cc(N4C[C@@H]5C[C@H]4CN5C)n3)ncc2s1" ?
< 100 nM

More entries:
Endpoint output: IC50 of "Cc1cc(Nc2cc3nc(-c4cccc(C5(O)CCCC5)c4)sc3cn2)nc(N2C[C@@H]3C[C@H]2CN3C)n1" . Value?
< 100 nM

Which value of IC50 has been reported for "Cc1cc(Nc2cc3nc(-c4cncc(N5CCOCC5)c4)sc3cn2)nc(N2C[C@@H]3C[C@H]2CN3CCO)n1" in the records?
< 100 nM

Consider the compound shown here: "Cc1cc(Nc2cc3nc(-c4cccc5c4CCN(C)C5=O)sc3cn2)nc(N2C[C@@H]3C[C@H]2CN3C)n1" What is its recorded IC50?
100 to 1000 nM

====

TARGET_OR_TEST_SYSTEM: HPK1 (Homo sapiens, UniProt Q92918)
METHOD_DESCRIPTION: HPK1 Biochemical Assay (ADP-Glo luminescence; low ATP 10 μM or high ATP 200 μM)
CONDITIONS_USED: 2 nM HPK1, 10 μM ATP; read-out: Biochemical Potency (low ATP)
RECORDED_ENDPOINT: IC50

Consider the reported IC50 for these compounds:
Which IC50 value is on record for "CN1C[C@@H]2C[C@H]1CN2c1cncc(Nc2cc3nc(-c4cc(N5CC[C@H](F)C5)ccn4)sc3cn2)n1" ?
< 100 nM

Need IC50, item "Cc1ccc(Nc2cc3nc(-c4ncccc4C)sc3cn2)nc1CN1CC[C@@H](C#N)C1"
< 100 nM

# IC50 lookup, item "Cc1cccc(F)c1-c1nc2cc(Nc3ccc(N4CCOCC4)c(CN4CCCS4(=O)=O)n3)ncc2s1"
< 100 nM

Alright, here's another compound for you.
Report IC50 for "CN(C)Cc1nc(Nc2cccc(F)c2-c2nc3cc(Cl)ncc3s2)ccc1N1CCOCC1" please.
> 5000 nM

====

TARGET_OR_TEST_SYSTEM: UniProtKB Q92918
METHOD_DESCRIPTION: HPK1 Biochemical Assay (ADP-Glo luminescence; low ATP 10 μM or high ATP 200 μM)
CONDITIONS_USED: HPK1 ADP-Glo assay, high ATP (200 μM ATP, 5 nM HPK1); read-out: Biochemical Potency (high ATP)
RECORDED_ENDPOINT: IC50

Solved cases below.
Dear colleague, I am looking for the recorded IC50 of the following molecule: "CCN1C[C@@H]2C[C@H]1CN2c1nc(C)cc(Nc2cc3nc(-c4cc(C)cc(N5C(=O)CC[C@H]5C)c4)sc3cn2)n1"
< 100 nM

Give the measured IC50 of "COCCN(C)C(=O)c1cccc(-c2nc3cc(Nc4cc(C)nc(N5C[C@@H]6C[C@H]5CN6C)n4)ncc3s2)c1" .
< 100 nM

Now for a further molecule.
Item "CCN1C[C@@H]2C[C@H]1CN2c1nc(C)cc(Nc2cc3nc(-c4ccnc(N5CCOC[C@H]5C(C)C)c4)sc3cn2)n1" has what recorded IC50?
< 100 nM

Measured values drawn from patent US12649751B2 for this set.
